test target: fibrinogen fragment D (Homo sapiens, UniProt P02675+P02679)
Construct: Fibrinogen fragment D, comprising the C-terminal polymerization pockets of fibrinogen (i.e. D-domain) without the N-terminal knobs; purchased Enzyme Research Laboratories FIB3
Sequence (P02679 89-432 limits assumed): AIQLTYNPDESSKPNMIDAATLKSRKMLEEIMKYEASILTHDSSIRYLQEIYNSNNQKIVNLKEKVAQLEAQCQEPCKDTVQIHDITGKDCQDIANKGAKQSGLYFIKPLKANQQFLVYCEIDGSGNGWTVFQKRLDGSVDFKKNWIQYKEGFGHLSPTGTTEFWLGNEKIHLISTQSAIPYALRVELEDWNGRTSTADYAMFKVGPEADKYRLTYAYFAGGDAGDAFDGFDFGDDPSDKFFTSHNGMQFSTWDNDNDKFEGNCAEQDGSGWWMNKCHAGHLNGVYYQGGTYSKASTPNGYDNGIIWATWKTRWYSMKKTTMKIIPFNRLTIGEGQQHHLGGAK
Sequence (P02675 164-491 limits assumed): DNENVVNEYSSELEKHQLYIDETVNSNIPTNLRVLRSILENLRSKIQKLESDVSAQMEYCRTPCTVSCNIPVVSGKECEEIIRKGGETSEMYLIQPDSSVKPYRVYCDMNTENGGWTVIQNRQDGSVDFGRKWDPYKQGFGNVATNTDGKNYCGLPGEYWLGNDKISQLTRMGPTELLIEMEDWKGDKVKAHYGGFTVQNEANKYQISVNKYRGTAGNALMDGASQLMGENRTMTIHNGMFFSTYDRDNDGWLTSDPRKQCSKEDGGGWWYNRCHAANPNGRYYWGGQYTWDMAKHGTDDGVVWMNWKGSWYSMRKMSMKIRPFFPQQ
Sequence (P02671 124-216 partner limits assumed): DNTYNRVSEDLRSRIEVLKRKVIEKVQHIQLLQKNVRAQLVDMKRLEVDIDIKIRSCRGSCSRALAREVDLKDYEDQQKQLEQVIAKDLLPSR
experimental details: SPR binding kinetics of knob 'A' peptides on immobilized fibrinogen fragment D
run conditions: heterogeneous ligand model, site 2; KD = kd/ka; read-out: KD2
Method: Human fibrinogen (Enzyme Research Laboratories, South Bend, Ind.) at 2 mg/mL was digested with 0.1 U/mL human plasmin (ERL) in HEPES+CaCl2 buffer (150 mM NaCl, 5 mM CaCl2, 25 mM HEPES; pH 7.4) overnight at room temperature. Fragment D was isolated as previously described, with slight modifications (Kostelansky M S, et al. Biochemistry. 2002; 41(40):12124-12132). Briefly, the plasmin-digested fibrinogen and GPRPAA (SEQ ID NO:10) beads were incubated for 30 min, with occasional agitation. […]
pKd: −log10 of the molar value. Where a SMILES comes first, the peptide text is derived from it.
Classification field: Criterion met = pKd at or over 5; Criterion not met = pKd under 5.

Solved cases (3 shown):
compound	class
N=C(N)NCCC[C@H](NC(=O)[C@H](CCC(=O)O)NC(=O)[C@@H]1CCCN1C(=O)[C@@H]1CCCN1C(=O)[C@H](CCCNC(=N)N)NC(=O)[C@@H]1CCCN1C(=O)CN)C(=O)N[C@@H](CS)C(=O)O [GPRPPERC] (H-GPRPPERC-OH)	Criterion met
CC(C)[C@H](NC(=O)[C@H](CCCNC(=N)N)NC(=O)[C@@H]1CCCN1C(=O)CN)C(=O)N[C@H](C(=O)N[C@@H](CCC(=O)O)C(=O)N[C@@H](CCCNC(=N)N)C(=O)N[C@@H](CS)C(=O)O)C(C)C [GPRVVERC] (H-GPRVVERC-OH)	Criterion not met
CC(C)[C@H](NC(=O)[C@H](CCCNC(=N)N)NC(=O)[C@@H]1CCCN1C(=O)CN)C(=O)N[C@H](C(=O)N[C@@H](C)C(=O)N[C@@H](C)C(=O)N[C@@H](CS)C(=O)O)C(C)C [GPRVVAAC] (H-GPRVVAAC-OH)	Criterion not met

Now consider the entry below.
Does C[C@H](NC(=O)[C@@H]1CCCN1C(=O)[C@H](Cc1ccccc1)NC(=O)[C@@H]1CCCN1C(=O)[C@H](CCCNC(=N)N)NC(=O)[C@@H]1CCCN1C(=O)CN)C(=O)N[C@@H](CS)C(=O)O [GPRPFPAC] (H-GPRPFPAC-OH) have a reported pKd of at least 5? Criterion met

----------
Listing of entries alongside the reported log10 Kd.
test target: fibrinogen fragment D (Homo sapiens, UniProt P02675+P02679)
Construct: Fibrinogen fragment D, comprising the C-terminal polymerization pockets of fibrinogen (i.e. D-domain) without the N-terminal knobs; purchased Enzyme Research Laboratories FIB3
experimental details: SPR binding kinetics of knob 'A' peptides on immobilized fibrinogen fragment D
run conditions: heterogeneous ligand model, site 1; KD = kd/ka; read-out: KD1
Where a SMILES comes first, the peptide text is derived from it.
Kindly note that the scale is log10 and the underlying Kd is in µM.

The reported log10 Kd of the molecule C[C@H](NC(=O)[C@@H]1CCCN1C(=O)[C@H](Cc1ccccc1)NC(=O)[C@@H]1CCCN1C(=O)[C@H](CCCNC(=N)N)NC(=O)[C@@H]1CCCN1C(=O)CN)C(=O)N[C@@H](CS)C(=O)O [GPRPFPAC] (H-GPRPFPAC-OH) was 0.57

Notebook: CC(C)[C@H](NC(=O)[C@H](CCCNC(=N)N)NC(=O)[C@@H]1CCCN1C(=O)CN)C(=O)N[C@H](C(=O)N[C@@H](CCC(=O)O)C(=O)N[C@@H](CCCNC(=N)N)C(=O)N[C@@H](CS)C(=O)O)C(C)C [GPRVVERC] (H-GPRVVERC-OH) , log10 Kd read as 1.73

Entry N=C(N)NCCC[C@H](NC(=O)[C@H](CCC(=O)O)NC(=O)[C@@H]1CCCN1C(=O)[C@@H]1CCCN1C(=O)[C@H](CCCNC(=N)N)NC(=O)[C@@H]1CCCN1C(=O)CN)C(=O)N[C@@H](CS)C(=O)O [GPRPPERC] (H-GPRPPERC-OH) ; log10 Kd = 1.26

Reported log10 Kd for CC(C)[C@H](NC(=O)[C@H](CCCNC(=N)N)NC(=O)[C@@H]1CCCN1C(=O)CN)C(=O)N[C@H](C(=O)N[C@@H](C)C(=O)N[C@@H](C)C(=O)N[C@@H](CS)C(=O)O)C(C)C [GPRVVAAC] (H-GPRVVAAC-OH) was 1.69

# molecule C[C@H](NC(=O)[C@H](C)NC(=O)[C@@H]1CCCN1C(=O)[C@H](CCCNC(=N)N)NC(=O)[C@@H]1CCCN1C(=O)CN)C(=O)N[C@@H](CS)C(=O)O [GPRPAAC] (H-GPRPAAC-OH) ; its log10 Kd = 0.66

----------
We begin with a simple list: items and their reported kon.
test target: fibrinogen fragment D (Homo sapiens, UniProt P02675+P02679)
Construct: Fibrinogen fragment D, comprising the C-terminal polymerization pockets of fibrinogen (i.e. D-domain) without the N-terminal knobs; purchased Enzyme Research Laboratories FIB3
Sequence (P02679 89-432 limits assumed): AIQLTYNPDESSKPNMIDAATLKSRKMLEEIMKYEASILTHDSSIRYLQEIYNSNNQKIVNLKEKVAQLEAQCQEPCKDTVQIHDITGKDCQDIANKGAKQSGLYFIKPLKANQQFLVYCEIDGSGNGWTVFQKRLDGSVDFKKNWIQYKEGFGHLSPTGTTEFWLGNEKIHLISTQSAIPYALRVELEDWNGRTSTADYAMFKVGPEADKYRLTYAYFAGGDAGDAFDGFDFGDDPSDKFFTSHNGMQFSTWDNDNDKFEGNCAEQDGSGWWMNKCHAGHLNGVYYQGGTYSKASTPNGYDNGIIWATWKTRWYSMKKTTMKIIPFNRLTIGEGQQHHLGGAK
Sequence (P02675 164-491 limits assumed): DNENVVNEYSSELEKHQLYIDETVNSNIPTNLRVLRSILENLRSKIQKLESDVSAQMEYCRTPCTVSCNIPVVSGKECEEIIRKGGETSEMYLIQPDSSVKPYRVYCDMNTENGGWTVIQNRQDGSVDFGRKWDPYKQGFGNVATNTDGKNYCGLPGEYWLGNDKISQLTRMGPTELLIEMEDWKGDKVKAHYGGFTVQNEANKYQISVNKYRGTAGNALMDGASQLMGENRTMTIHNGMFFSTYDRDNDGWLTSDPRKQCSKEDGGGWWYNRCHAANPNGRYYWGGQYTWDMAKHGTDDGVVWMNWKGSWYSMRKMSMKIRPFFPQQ
Sequence (P02671 124-216 partner limits assumed): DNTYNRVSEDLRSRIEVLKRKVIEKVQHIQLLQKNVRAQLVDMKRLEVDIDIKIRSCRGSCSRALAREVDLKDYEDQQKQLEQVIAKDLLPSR
experimental details: SPR binding kinetics of knob 'A' peptides on immobilized fibrinogen fragment D
run conditions: Langmuir 1:1 model; read-out: ka, association rate
Where a SMILES comes first, the peptide text is derived from it.
Please respond with the number in M⁻¹ s⁻¹ and leave the unit unwritten.

compound	test target	kon (M⁻¹ s⁻¹)
C[C@H](NC(=O)[C@H](C)NC(=O)[C@@H]1CCCN1C(=O)[C@H](CCCNC(=N)N)NC(=O)[C@@H]1CCCN1C(=O)CN)C(=O)N[C@@H](CS)C(=O)O [GPRPAAC] (H-GPRPAAC-OH)	fibrinogen fragment D (Homo sapiens, UniProt P02675+P02679)	1140
CC(C)[C@H](NC(=O)[C@H](CCCNC(=N)N)NC(=O)[C@@H]1CCCN1C(=O)CN)C(=O)N[C@H](C(=O)N[C@@H](CCC(=O)O)C(=O)N[C@@H](CCCNC(=N)N)C(=O)N[C@@H](CS)C(=O)O)C(C)C [GPRVVERC] (H-GPRVVERC-OH)	fibrinogen fragment D (Homo sapiens, UniProt P02675+P02679)	280

Entry CC(C)[C@H](NC(=O)[C@H](CCCNC(=N)N)NC(=O)[C@@H]1CCCN1C(=O)CN)C(=O)N[C@H](C(=O)N[C@@H](C)C(=O)N[C@@H](C)C(=O)N[C@@H](CS)C(=O)O)C(C)C [GPRVVAAC] (H-GPRVVAAC-OH) , fibrinogen fragment D (Homo sapiens, UniProt P02675+P02679) data, kon value: 90

Per the reported fibrinogen fragment D (Homo sapiens, UniProt P02675+P02679) data, N=C(N)NCCC[C@H](NC(=O)[C@H](CCC(=O)O)NC(=O)[C@@H]1CCCN1C(=O)[C@@H]1CCCN1C(=O)[C@H](CCCNC(=N)N)NC(=O)[C@@H]1CCCN1C(=O)CN)C(=O)N[C@@H](CS)C(=O)O [GPRPPERC] (H-GPRPPERC-OH) has kon of 1290

kon of C[C@H](NC(=O)[C@@H]1CCCN1C(=O)[C@H](Cc1ccccc1)NC(=O)[C@@H]1CCCN1C(=O)[C@H](CCCNC(=N)N)NC(=O)[C@@H]1CCCN1C(=O)CN)C(=O)N[C@@H](CS)C(=O)O [GPRPFPAC] (H-GPRPFPAC-OH) , assay on fibrinogen fragment D (Homo sapiens, UniProt P02675+P02679), is 12500
